System: DMS-273
Test: NCI tumour cell line growth inhibition, 48 h
Activity calls are given as the source filed them. No stated cut-off is given here; in the data, active = GI50 up to about 1.1 µM and inactive = higher.
Answer with one of the outcomes Y = active, N = inactive

Hi, do you know how Nc1ncnc2c1ncn2C1CC(OC2CCCCO2)C(CO)O1 (configuration not stated) came out in this test? N

Another: `O=C(O)/C=C/c1nc2ccccc2c(=O)o1` N

Another: COc1cc(C2C(Cl)C(=O)N2NC(=O)c2ccccc2O)ccc1O (configuration not stated) N

* * *

Tested on: EKVX
Assay: NCI tumour cell line growth inhibition, 48 h
The source made the active and inactive calls. No stated cut-off is given here; in the data, active = GI50 up to about 1.1 µM and inactive = higher.
Metric: GI50

Below: 5 compounds and their reported GI50.
# Compound, Assayed system, GI50
rows = [
    ("CC12CCC(CC1(Cl)Cl)C2 (stereo unspecified)", "EKVX", "> 100 µM (inactive)"),
    ("CCOC(=O)C[C@@H](C)[C@]1(C(=O)OC)CCCC1=O", "EKVX", "> 100 µM (inactive)"),
    ("CC(C)NC(=O)OCc1c(COC(=O)NC(C)C)c(-c2ccc[n+](COC(=O)C(C)(C)C)c2)n2c1CCC2", "EKVX", "> 100 µM (inactive)"),
    ("C=[N+](CNC(=O)CNC(=O)C(Cc1ccc([N+](=O)[O-])cc1)NC(=O)OC(C)(C)C)C(=O)CNC(=O)C(Cc1ccc([N+](=O)[O-])cc1)NC(=O)OC(C)(C)C (stereo unspecified)", "EKVX", "> 100 µM (inactive)"),
    ("O=[N+]([O-])c1ccc2[nH]nc(OCc3ccccc3Cl)c2c1", "EKVX", "54.2 µM (inactive)"),
]

Please give the measured GI50 for this compound: `CN(C)CCC(=O)[C@@]1(O)CC[C@H]2[C@@H]3CC=C4C[C@@H](O)CC[C@]4(C)[C@H]3CC[C@@]21C` 20.7 µM (inactive)

* * *

Test system: ACHN
Assay: NCI tumour cell line growth inhibition, 48 h
Activity calls are given as the source filed them. No stated cut-off is given here; in the data, active = GI50 up to about 1.1 µM and inactive = higher.
Answer with one of the outcomes 1 = active, 0 = inactive

Would you please look over these solved cases?
# Compound, Class label
records = [
    ("O=C1c2ccccc2-c2nc(-c3cccc([N+](=O)[O-])c3)nnc21", 0),
    ("COc1cccc2c1C(=O)c1c(O)c3c(c(O)c1C2=O)C[C@@](O)(C(=O)CO)CC3OC1CC(N)C(OC2CCCCO2)C(C)O1 (stereo partly drawn)", 1),
    ("CC(C)(C)C(=O)ON1N=NC2C3CC(OCc4ccccc4)(OCc4ccccc4)C(O3)C21 (stereo not drawn)", 0),
]

Hi, do you know how CCC(C)C1NC(=O)C(NC(=O)c2c3nc4c(C(=O)NC5C(=O)NC(C(C)CC)C(=O)N6CCCC6C(=O)N(C)CC(=O)N(C)C(C(C)C)C(=O)OC5C)ccc(C)c4oc-3c(C)c(=O)c2O)C(C)OC(=O)C(C(C)C)N(C)C(=O)CN(C)C(=O)C2CCCN2C1=O (stereo not drawn) came out in this test? 0

Another: `Cc1ccccc1-c1cc(=O)c2cc(C)c(C)c(C(=O)O)c2o1` 0

Another: `CCOC(=O)CC(=O)C(=O)NN=C1NCCN1` 0

Another: COC(=O)C12C3C4C1C1C2C3C41I (stereo not drawn) 0

Another: `CN(C)CCC(=O)[C@@]1(O)CC[C@H]2[C@@H]3CC=C4C[C@@H](O)CC[C@]4(C)[C@H]3CC[C@@]21C` 0

Another: `Cc1cccc(/C=C2\CCCCCC2=O)c1` 0

Another: `COc1ccc(C2=NN=C3C(c4ccccc4)=Nc4ccccc4N3C2)cc1` 0

Another: `CC(C)C(=S)N(C)O` 0

Another: `CN/C(=N\n1cnnc1)OC` 0

Another: `O=C1Nc2cc([N+](=O)[O-])c(Br)cc2C1=O` 0

* * *

Reported GI50 values for the following compounds.
System: UO-31
Assay: NCI tumour cell line growth inhibition, 48 h
Activity calls are given as the source filed them. Rule as the data show it: active = GI50 up to about 1.1 µM and inactive = higher.

Below: 6 compounds and their reported GI50.
# Compound, GI50
records = [
    ("COc1ccc(/C(C)=N/OC(=O)c2c(-c3ccccc3Cl)noc2C)cc1CN1CCOCC1", "3.75 µM (inactive)"),
    ("CCOC(=O)c1cn2c(n1)sc1cc(OC)ccc12", "10.9 µM (inactive)"),
    ("CCOP(=O)(OCC)OC1c2[nH]cc(C(=O)OCc3ccccc3)c2-c2cc(C(=O)OC)[nH]c2C1OC (centres undefined)", "4.57 µM (inactive)"),
    ("CCN(CC)C(=O)Cc1[nH][nH]c(=O)c1C(=O)N(CC)CC", "> 100 µM (inactive)"),
    ("O=C(O)C1C2c3ccccc3C(c3ccccc32)C1C(=O)NCC1CC1 (centres undefined)", "71.4 µM (inactive)"),
    ("COc1ccc(/C=N/N2C(=O)c3c(N)c(C#N)c(-c4ccccc4)c(-c4ccccc4)c3C2=O)cc1", "> 100 µM (inactive)"),
]

Please give the measured GI50 for this compound: `CN(C)CCNC(=O)c1cccc2nc3ccc4cccnc4c3nc12` 0.205 µM (active)

Another: `CC(C)(NO)/C(=N\O)c1ccco1` > 100 µM (inactive)

Another: CC(=O)NC(CCCCN(Cc1ccccc1)C(=O)NCCCl)C(=O)NCc1ccccc1 (centres undefined) > 100 µM (inactive)

Another: O=C1OCCC12CN(Cc1ccccc1)N=N2 (centres undefined) > 100 µM (inactive)

Another: `COC(Cc1cc(C(O)(c2ccc(C(C)(C)C)cc2)c2cc(CC(OC)(c3cc(C(OC)(c4ccc(C(C)(C)C)cc4)c4ccc(C(C)(C)C)cc4)c(C)cc3C)c3cc(C(OC)(c4ccc(C(C)(C)C)cc4)c4ccc(C(C)(C)C)cc4)c(C)cc3C)c(C)cc2C)c(C)cc1C)(c1cc(C(OC)(c2ccc(C(C)(C)C)cc2)c2ccc(C(C)(C)C)cc2)c(C)cc1C)c1cc(C(OC)(c2ccc(C(C)(C)C)cc2)c2ccc(C(C)(C)C)cc2)c(C)cc1C` > 75 µM (inactive)

Another: `CC(=O)Oc1ccc2cc(-c3ccc(OC(C)=O)c(OC(C)=O)c3)c(=O)oc2c1` 56 µM (inactive)

Another: `O=C(O)c1cccc(S(=O)(=O)NCCO)c1` > 100 µM (inactive)

* * *

System: HL-60
Assay: NCI tumour cell line growth inhibition, 48 h
Active and inactive are the calls of the source. Cut-off read from the data, not from the text of the source: active = GI50 up to about 1.1 µM and inactive = higher.
Answer with one of the outcomes active, inactive

Would you please look over these solved cases?
# Compound, Class label
records = [
    ("CC(Cn1c2c(c3cc(O)ccc31)CCc1ccc(O)cc1-2)N(C)C (centres undefined)", "inactive"),
    ("Cc1cc(=O)c2cc(/N=C/c3ccc([N+](=O)[O-])o3)ccc2o1", "inactive"),
    ("O=P(O)(CCP(=O)(O)c1ccccc1)c1ccccc1", "inactive"),
    ("Clc1ccc(-c2cn3c(nc4ccccc43)c(/C=C/c3ccco3)n2)cc1", "inactive"),
    ("O=C1/C(=c2\\s/c(=C\\c3ccccc3)c(=O)n2-c2ccccc2)SC(=S)N1c1ccccc1", "inactive"),
    ("COC1=C2CC(C)CC(OC)C(OC(=O)CN)[C@H](C)/C=C(\\C)C(OC(N)=O)C(OC)/C=C\\C=C(/C)C(=O)NC(=CC1=O)C2=O (some centres undefined)", "active"),
    ("ClC1c2ccccc2C2(c3ccccc3)OOC1(c1ccccc1)O2 (centres undefined)", "active"),
    ("c1csc(-c2ccc(-c3ccc(-c4cccs4)s3)s2)c1", "inactive"),
    ("C/C(=N\\NC(N)=S)c1sc(-n2nc(-c3ccccc3)cc2-c2ccccc2)nc1C", "inactive"),
    ("COC(=O)C1=C(C(=O)OC)C(C(=O)c2ccccc2)N2N=C(c3ccc(Cl)cc3)C=CC12 (centres undefined)", "inactive"),
]

Hi, do you know how `CCCn1cnc2c(/N=N/O)ncnc21` came out in this test? inactive

Another: CC(C)(C)OC(=O)N1CC(C)(C)N2C(=O)C3(CCCO3)C12 (centres undefined) inactive

Another: O=C1C2[C@@H](C(=O)N1c1ccc(Br)cc1)C13C(=CC2([N+](=O)[O-])[C@@H]2C(=O)N(c4ccc(Br)cc4)C(=O)[C@@H]21)c1ccccc1N3c1ccccc1 (some centres undefined) inactive

Another: `CN(C)CCNC(=O)c1cc([N+](=O)[O-])cc2ccc(-c3ccccc3)nc12` inactive

Another: `CCOC(=O)NC(=O)c1cn(CCCCCCCCCCC(=O)N2CCN(CCn3cc(C(=O)NC(=O)OCC)c(=O)[nH]c3=O)CC2)c(=O)[nH]c1=O` inactive

Another: `Cc1ccc(/C=N/n2c(-c3ccc(C)cc3)n[nH]c2=O)cc1` inactive

Another: CC(O)CC(=O)CO[C@H]1[C@H](O)[C@@H](O)[C@@H](O)[C@@H]2NC(=O)c3c(cc4c(c3O)OCO4)[C@H]21 (some centres undefined) active

Another: NC(Cc1ccc(O)cn1)C(=O)O (centres undefined) inactive

Another: `CCCCCCNc1n[nH]c(=O)c2c1nnn2Cc1ccccc1` inactive
